Numbers sourced from patent US11427548B2.

# measurement_target: Androgen Receptor (Homo sapiens)
# Construct: endogenous in cells; host or cells: VCaP cells
# Sequence (P10275 1-920): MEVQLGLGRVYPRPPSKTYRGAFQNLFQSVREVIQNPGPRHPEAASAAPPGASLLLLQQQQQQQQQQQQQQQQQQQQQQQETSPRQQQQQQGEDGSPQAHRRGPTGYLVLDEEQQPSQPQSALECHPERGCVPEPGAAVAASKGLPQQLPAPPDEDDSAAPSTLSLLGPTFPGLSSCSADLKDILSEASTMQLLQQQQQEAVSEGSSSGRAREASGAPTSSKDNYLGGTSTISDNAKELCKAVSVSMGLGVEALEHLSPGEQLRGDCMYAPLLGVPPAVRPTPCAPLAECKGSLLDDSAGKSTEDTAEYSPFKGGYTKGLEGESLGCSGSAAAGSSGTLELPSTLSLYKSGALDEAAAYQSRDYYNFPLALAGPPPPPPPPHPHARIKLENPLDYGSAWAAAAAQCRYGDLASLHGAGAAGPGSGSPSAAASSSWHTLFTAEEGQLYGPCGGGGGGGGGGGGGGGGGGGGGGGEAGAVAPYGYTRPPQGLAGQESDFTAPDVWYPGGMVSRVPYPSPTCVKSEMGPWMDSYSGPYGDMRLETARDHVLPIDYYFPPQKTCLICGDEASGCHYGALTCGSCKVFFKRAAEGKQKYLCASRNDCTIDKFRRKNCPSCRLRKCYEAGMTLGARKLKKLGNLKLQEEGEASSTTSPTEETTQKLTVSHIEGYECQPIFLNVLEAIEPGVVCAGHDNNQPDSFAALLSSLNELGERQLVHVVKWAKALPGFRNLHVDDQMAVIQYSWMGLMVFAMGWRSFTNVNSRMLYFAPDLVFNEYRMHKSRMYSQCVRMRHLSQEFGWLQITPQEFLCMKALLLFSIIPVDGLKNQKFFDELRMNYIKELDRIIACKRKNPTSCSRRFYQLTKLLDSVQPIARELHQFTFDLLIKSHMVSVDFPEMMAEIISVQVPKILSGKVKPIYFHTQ
# assay_explanation: Androgen Receptor ELISA assay (PathScan AR ELISA) in VCaP cells: AR degradation, Dmax and DC50
# Type: cell-based
# experimental_conditions: VCaP cells; Table 36; read-out: VCaP DC50

| compound | DC50 |
| --- | --- |
| Cc1ncsc1-c1ccc([C@H](C)NC(=O)[C@@H]2C[C@@H](O)CN2C(=O)[C@@H](NC(=O)CN2C[C@@H](C)N(CCCc3ccc(C(=O)N[C@H]4C(C)(C)[C@H](Oc5ccc(C#N)c(Cl)c5)C4(C)C)cc3)C[C@@H]2C)C(C)(C)C)cc1 | < 50 nM |
| Cc1ncsc1-c1ccc([C@H](C)NC(=O)[C@@H]2C[C@@H](O)CN2C(=O)[C@H](c2ncc(CCCN3CCN(c4ccc(C(=O)NC5C(C)(C)C(Oc6ccc(C#N)c(Cl)c6)C5(C)C)cn4)CC3)n2C)C(C)C)cc1 (some centres unmarked) | > 501 nM |

====

# measurement_target: Androgen Receptor (Homo sapiens, UniProt P10275)
# Construct: endogenous in cells; host or cells: VCaP cells
# Sequence (P10275 1-920): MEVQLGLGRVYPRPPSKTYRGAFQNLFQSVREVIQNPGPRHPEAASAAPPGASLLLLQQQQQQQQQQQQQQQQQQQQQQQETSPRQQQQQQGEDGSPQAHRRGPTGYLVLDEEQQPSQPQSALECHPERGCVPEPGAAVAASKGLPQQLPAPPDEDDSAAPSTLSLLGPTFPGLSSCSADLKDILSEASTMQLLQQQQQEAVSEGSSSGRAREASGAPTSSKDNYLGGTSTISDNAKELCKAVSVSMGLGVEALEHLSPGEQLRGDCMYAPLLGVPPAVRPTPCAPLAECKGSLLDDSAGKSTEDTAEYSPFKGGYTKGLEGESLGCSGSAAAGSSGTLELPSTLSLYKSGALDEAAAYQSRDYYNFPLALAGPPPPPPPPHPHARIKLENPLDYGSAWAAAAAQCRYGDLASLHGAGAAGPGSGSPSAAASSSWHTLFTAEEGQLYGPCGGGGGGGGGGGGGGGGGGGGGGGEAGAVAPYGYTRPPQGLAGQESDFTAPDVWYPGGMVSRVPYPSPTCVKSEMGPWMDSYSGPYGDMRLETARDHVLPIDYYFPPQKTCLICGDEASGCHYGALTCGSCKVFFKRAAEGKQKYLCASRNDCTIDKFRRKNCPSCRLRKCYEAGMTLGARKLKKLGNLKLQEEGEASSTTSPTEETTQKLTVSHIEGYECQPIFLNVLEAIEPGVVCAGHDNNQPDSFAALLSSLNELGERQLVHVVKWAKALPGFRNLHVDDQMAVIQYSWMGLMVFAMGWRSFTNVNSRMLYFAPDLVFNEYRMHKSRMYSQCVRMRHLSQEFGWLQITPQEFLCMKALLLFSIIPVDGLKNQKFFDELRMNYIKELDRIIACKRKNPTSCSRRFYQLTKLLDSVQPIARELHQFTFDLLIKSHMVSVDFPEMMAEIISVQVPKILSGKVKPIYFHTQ
# assay_explanation: Androgen Receptor ELISA assay (PathScan AR ELISA) in VCaP cells: AR degradation, Dmax and DC50
# Assay type: cell-based
# experimental_conditions: VCaP, VCaP cells; Table 34; read-out: VCaP Dmax (%)
The following compounds are shown together with reported Dmax values.

| compound | Dmax |
| --- | --- |
| Cc1ncsc1-c1ccc(CNC(=O)[C@@H]2C[C@@H](O)CN2C(=O)[C@@H](NC(=O)COCCCCNC(=O)c2ccc(C(=O)N[C@H]3C(C)(C)[C@H](Oc4ccc(C#N)c(Cl)c4)C3(C)C)cc2)C(C)(C)C)cc1 [Example 398] | 26 to 50% |
| Cc1ncsc1-c1ccc(CNC(=O)[C@@H]2C[C@@H](O)CN2C(=O)[C@@H](NC(=O)COCC2CCN(c3ccc(C(=O)N[C@H]4C(C)(C)[C@H](Oc5ccc(C#N)c(Cl)c5)C4(C)C)cc3)CC2)C(C)(C)C)cc1 [Example 410] | > 71% |
| Cc1ncoc1-c1ccc(CNC(=O)[C@@H]2C[C@@H](O)CN2C(=O)[C@@H](NC(=O)COCCCOCCCCOc2ccc(N3C(=S)N(c4cnc(C#N)c(Cl)c4)C(=O)C3(C)C)cc2)C(C)(C)C)cc1 [Example 338] | 51 to 70% |
| Cc1ncsc1-c1ccc(CNC(=O)[C@@H]2C[C@@H](O)CN2C(=O)[C@@H](NC(=O)COCCCCNc2ccc(-c3ccc(N4C(=S)N(c5cnc(C#N)c(C(F)(F)F)c5)C(=O)C4(C)C)cc3)cc2)C(C)(C)C)cc1 [Example 391] | 51 to 70% |
| Cc1ncsc1-c1ccc(CNC(=O)[C@@H]2C[C@@H](O)CN2C(=O)[C@@H](NC(=O)CNC(=O)CCCOc2ccc(C(=O)N[C@H]3C(C)(C)[C@H](Oc4ccc(C#N)c(Cl)c4)C3(C)C)cc2)C(C)(C)C)cc1 [Example 393] | 51 to 70% |
| Cc1ncsc1-c1ccc([C@H](C)NC(=O)[C@@H]2C[C@@H](O)CN2C(=O)[C@@H](NC(=O)COCCCOCCCCOc2ccc(N3C(=S)N(c4cnc(C#N)c(C(F)(F)F)c4)C(=O)C3(C)C)cc2)C(C)(C)C)cc1 [Example 365] | > 71% |
| Cc1ncoc1-c1ccc([C@H](C)NC(=O)[C@@H]2C[C@@H](O)CN2C(=O)[C@@H](NC(=O)COCCCCNc2ccc(C(=O)N[C@H]3C(C)(C)[C@H](Oc4ccc(C#N)c(Cl)c4)C3(C)C)cc2)C(C)(C)C)cc1 [Example 411] | > 71% |
| CC(C)(C)[C@H](NC(=O)COCCCCNc1ccc(C(=O)N[C@H]2C(C)(C)[C@H](Oc3ccc(C#N)c(Cl)c3)C2(C)C)cc1)C(=O)N1C[C@H](O)C[C@H]1C(=O)NCc1ccc(-c2scnc2C2CC2)cc1 [Example 412] | 51 to 70% |
| CC(C)(C)[C@H](NC(=O)COCCCOCCCCOc1ccc(N2C(=S)N(c3ccc(C#N)c(Br)c3)C(=O)C2(C)C)cc1F)C(=O)N1C[C@H](O)C[C@H]1C(=O)NCc1ccc(-c2cnco2)cc1 [Example 334] | > 71% |
| Cc1ncsc1-c1ccc(CNC(=O)[C@@H]2C[C@@H](O)CN2C(=O)[C@@H](NC(=O)CO[C@H](C)c2ccc(Oc3ccc(C(=O)N[C@H]4C(C)(C)[C@H](Oc5ccc(C#N)c(Cl)c5)C4(C)C)cc3)cc2)C(C)(C)C)cc1 [Example 405] | > 71% |

====

Documented Dmax across a set of compounds
# measurement_target: Androgen Receptor (Homo sapiens, UniProt P10275+P40337, T878A)
# Construct: Compounds have been evaluated in this assay in LNCaP and/or VCaP cells utilizing similar protocols; endogenous in cells; host or cells: LNCaP cells
# assay_explanation: Androgen Receptor ELISA assay (PathScan AR ELISA) in LNCaP cells: AR degradation, Dmax and DC50
# Format: cell-based
# experimental_conditions: highest percentage of Androgen Receptor degradation
measured_parameter: Dmax

| structure_as_smiles | measured_value |
| --- | --- |
| Cc1ncsc1-c1ccc(CNC(=O)[C@@H]2C[C@@H](O)CN2C(=O)[C@@H](NC(=O)c2ccc(OCCCCCOc3ccc(N4C(=S)N(c5ccc(C#N)c(C(F)(F)F)c5)C(=O)C4(C)C)cc3)cc2)C(C)(C)C)cc1 | 26 to 50% |
| Cc1ncsc1-c1ccc(CNC(=O)[C@@H]2C[C@@H](O)CN2C(=O)[C@@H](NC(=O)c2ccccc2OCCOCCOc2ccc(N3C(=S)N(c4ccc(C#N)c(C(F)(F)F)c4)C(=O)C3(C)C)cc2)C(C)(C)C)cc1 | 51 to 70% |
